system: UO-31 renal; assay: NCI tumour cell line growth inhibition, 48 h
I'd appreciate it if you could supply TGI values for the items below.

Request: Sample CCCCN(CCCC)C(=O)C(=O)CC(=O)/C=C/c1ccccc1 — what was its TGI?
Response: > 100 µM

Request: Item: O=C1C2=C(c3ccccc31)C(c1ccc(Cl)cc1)NC(=S)N2 (configuration not stated)
Response: 35 µM

Request: And what about the compound CC(=O)OCC(OC(C)=O)C(OC(C)=O)C(OC(C)=O)C(=O)CNn1c(-c2ccccc2Cl)nc2ccc(Br)cc2c1=O (configuration not stated) ?
Response: > 100 µM

Request: Now this one: COc1cccc2c1[C@]1(O)C(O)CCCC21 (some centres not stated)
Response: > 100 µM

Request: And the next one, O=C(O)c1cc2c(c3ccsc13)-c1ccccc1CC2 ?
Response: 79.5 µM

Request: Same for O=C(O)c1ccc2cccnc2c1O
Response: 8.65 µM

Request: Record: N=C1C(c2nc(-c3ccc(Br)cc3)cs2)=C(O)CN1CC1CCCO1 (configuration not stated)
Response: > 100 µM

Request: Consider next the compound CCOC(=O)C[n+]1ccc2c([nH]c3cc(OC)ccc32)c1C in the same way.
Response: > 100 µM

Request: Continue with COc1cccc2ccc3c(c12)C(=O)OC31CCc2c(C)cccc21 (configuration not stated)
Response: 26.3 µM

Request: Lookup COc1cc(S(=O)(=O)N/N=C/c2cc(Br)c(O)c(OC)c2)c(OC)cc1NC(C)=O
Response: > 100 µM

Request: COc1ccc(NS(=O)c2cccc(C)c2)cc1 (configuration not stated)
Response: > 100 µM

Request: Also NC(=S)N/N=C\c1nccc2c(C(F)(F)C(F)(F)C(F)(F)F)cccc12 , if possible.
Response: 0.892 µM

Request: What about Cc1nn2c(/C=C3\C(=O)Nc4ccccc43)c(C)nc2s1 ?
Response: > 100 µM

Request: Another compound to look at: CN(C)c1ccc(/C=C2\C[C@H]3[C@@H]4CCc5cc(O)ccc5[C@H]4CC[C@]3(C)C2=O)cc1
Response: > 100 µM

Request: And what about the compound C[C@H]1CCC/C=C/[C@@H]2C[C@H](O)C[C@H]2[C@H](O)[C@@H](SC2OC(CO)C(O)C(O)C2O)CC(=O)O1 (some centres not stated) ?
Response: > 100 µM

Request: Also need C=C1C(=O)O[C@H]2C3C(=C(C)CC[C@@H]12)C(=O)[C@@H]1OC31C (some centres not stated) , thanks.
Response: 11.1 µM

Request: Moving on to the next compound: N#C/C(=C\c1cccnc1)c1nc2ccccc2o1
Response: > 100 µM

Request: Follow-up entry: O=C1OC(c2ccccc2)=N/C1=C/N1CCCC1C(=O)O (configuration not stated)
Response: > 100 µM

Request: Can you handle c1ccc(CNc2ncnc3n[nH]nc23)cc1 next?
Response: > 100 µM

Request: Also need CCCC(=O)OC1CC(n2cc(F)c(=O)[nH]c2=O)OC1CO (configuration not stated) , thanks.
Response: > 10 µM

Request: CCOC(=O)N1C(=S)C(C(=O)OC)(C(=O)OC)N=C1C
Response: > 100 µM

Request: Then this compound: O=C(NCc1cccnc1)C(=O)NCc1cccnc1
Response: > 100 µM
